# Tested on: Pseudomonas fluorescens HPPD polypeptide (wild-type and mutants)
# TEST DETAILS: Coupled HPPD activity assay: turnover and residual turnover in crude HPPD polypeptide extracts with and without Cmpd. 1
# Format: biochemical
# SETUP CONDITIONS: presence of 100 μM Cmpd. 1; changes in absorbance (OD) at 320 nm in the coupled assay, 30 min
PROPERTY NAME: Residual turnover
Field format: numeric only.

Observe how each entry below is paired with its result.
[[record]]
molecule = "SEQ ID NO:26 (protein, mutant HPPD polypeptide) MADLYENPMGLMGFEFIEFASPTPGTLEPIFEIMGFTKVATHRSKNVHLYRQGEINLILNNEPNSIASYFAAEHGPSVCGMAFRVKDSQKAYNRALELGAQPIHIDTGPMELNLPAIKGIGGAPLYLIDRFGEGSSIYDIDFVYLEGVERNPVGAGLKVIDHLTHNVYRGRMVYWANFYEKLFNFREARYFDIKGEYTGLTSKAMSAPDGMIRIPLNEESSKGAGQIEEFLMQFNGEGIQHVAFLTDDLVKTWDALKKIGMRFLTAPGDEYYEMLEGRLPDHGEPVDQLQARGILLDGSSVEGDKRLLLQIFSEQLMGPVFFEFIQRKGDDGFGPHSFKVLFESIERDQVRRGVLTAD"
property_name = "Residual turnover"
assay_result = 0.14

[[record]]
molecule = "SEQ ID NO:3 (protein, mutant HPPD polypeptide) MADLYENPMGLMGFEFIEFASPTPGTLEPIFEIMGFTKVATHRSKNVHLYRQGEINLILNNEPNSIASYFAAEHGPSVCGMAFRVKDSQKAYNRALELGAQPIHIDTGPMELNLPAIKGIGGAPLYLIDRFGEGSSIYDIDFVYLEGVERNPVGAGLKVIDHLTHNVYRGRMVYWANFYEKLFNFREARYFDIKGEYTGLTSKAMSAPDGMIRIPLNEESSKGAGQIEEFLMQFNGEGIQHVAFLTDDLVKTWDALKKIGMRFMTAPGDEYYEMLEGRLPDHGEPVDQLQARGILLDGSSVEGDKRLLLQIFSEKLMGPVFFEFIQRKGDDGFGPDSFKVLFESIERDQVRRGVLTAD"
property_name = "Residual turnover"
assay_result = 0.012

[[record]]
molecule = "SEQ ID NO:55 (protein, mutant HPPD polypeptide) MADLYENPMGLMGFEFIEFASPTPGTLEPIFEIMGFTKVATHRSKNVHLYRQGEINLILNNEPNSIASYFAAEHGPSVCGMAFRVKDSQKAYNRALELGAQPIHIDTGPMELNLPAIKGIGGAPLYLIDRFGEGSSIYDIDFVYLEGVERNPVGAGLKVIDHLTHNVYRGRMVYWANFYEKLFNFREARYFDIKGEYTGLTSKAMSAPDGMIRIPLNEESSKGAGQIEEFLMQFNGEGIQHVAFLTDDLVKTWDALKKIGMRFLTAPGDEYYEMLEGRLPDHGEPVDQLQARGILLDGSSVEGDKRLLLQIFSEKLMGPVFFEFIQRKGDDGFGPHSFKVLFESMERDQVRRGVLTAD"
property_name = "Residual turnover"
assay_result = 0.177

[[record]]
molecule = "SEQ ID NO:48 (protein, mutant HPPD polypeptide) MADLYENPMGLMGFEFIEFASPTPGTLEPIFEIMGFTKVATHRSKNVHLYRQGEINLILNNEPNSIASYFAAEHGPSVCGMAFRVKDSQKAYNRALELGAQPIHIDTGPMELNLPAIKGIGGAPLYLIDRFGEGSSIYDIDFVYLEGVERNPVGAGLKVIDHLTHNVYRGRMVYWANFYEKLFNFREARYFDIKGEYTGLTSKAMSAPDGMIKIPLNEESSKGAGQIEEFLMQFNGEGIQHVAFLTDDLVKTWDALKKIGMRFMTAPGDEYYEMLEGRLPDHGEPVDQLQARGILLDGSSVEGDKRLLLQIFSETLMGPVFFEFIQRKGDDGFGPDSFKVLFESIERDQVRRGVLTAD"
property_name = "Residual turnover"
assay_result = 0.061

[[record]]
molecule = "SEQ ID NO:46 (protein, mutant HPPD polypeptide) MADLYENPMGLMGFEFIEFASPTPGTLEPIFEIMGFTKVATHRSKNVHLYRQGEINLILNNEPNSIASYFAAEHGPSVCGMAFRVKDSQKAYNRALELGAQPIHIDTGPMELNLPAIKGIGGAPLYLIDRFGEGSSIYDIDFVYLEGVERNPVGAGLKVIDHLTHNVYRGRMVYWANFYEKLFNFREARYFDIKGEYTGLTSKAMSAPDGMIKIPLNEESSKGAGQIEEFLMQFNGEGIQHVAFLTDDLVKTWDALKKIGMRFMTAPGDEYYEMLEGRLPDHGEPVDQLQARGILLDGSSVEGDKRLLLQIFSEKLMGPVFFEFIQRKGDDGFGPDSFKVLFESIERDQVRRGVLTAD"
property_name = "Residual turnover"
assay_result = 0.059

[[record]]
molecule = "SEQ ID NO:29 (protein, mutant HPPD polypeptide) MADLYENPMGLMGFEFIEFASPTPGTLEPIFEIMGFTKVATHRSKNVHLYRQGEINLILNNEPNSIASYFAAEHGPSVCGMAFRVKDSQKAYNRALELGAQPIHIDTGPMELNLPAIKGIGGAPLYLIDRFGEGSSIYDIDFVYLEGVERNPVGAGLKVIDHLTHNVYRGRMVYWANFYEKLFNFREARYFDIKGEYTGLTSKAMSAPDGMIRIPLNEESSKGAGQIEEFLMQFNGEGIQHVAFLTDDLVKTWDALKKIGMRFMTAPGDEYYEMLEGRLPDHGEPVDQLQARGILLDGSSVEGDKRLLLQIFSEKLMGPVFFEFIQRKGDDGFGPHSFKVLFEQIERDQVRRGVLTAD"
property_name = "Residual turnover"
assay_result = 0.174


What Residual turnover value was documented for this molecule, SEQ ID NO:64 (protein, mutant HPPD polypeptide) MADLYENPMGLMGFEFIEFASPTPGTLEPIFEIMGFTKVATHRSKNVHLYRQGEINLILNNEPNSIASYFAAEHGPSVCGMAFRVKDSQKAYNRALELGAQPIHIDTGPMELNLPAIKGIGGAPLYLIDRFGEGSSIYDIDFVYLEGVERNPVGAGLKVIDHLTHNVYRGRMVYWANFYEKLFNFREARYFDIKGEYTGLTSKAMSAPDGMIKIPLNEESSKGAGQIEEFLMQFNGEGIQHVAFLTDDLVKTWDALKKIGMRFLTAPGDEYYEMLEGRLPDHGEPVDQLQARGILLDGSSVEGDKRLLLQIFSEQLMGPVFFEFIQRKGDDGFGPHSFKVLFESMERDQVRRGVLTAD ?
0.181
